System: 349418-098-R-PDC complex spheroid growth
experimentalProtocol: Anticancer human tumor 349418-098-R-PDC patient-derived lung adenocarcinoma cell line growth inhibition [AhR]
runParameters: second compound 3.16 µM; first compound 0.1 µM; stronger effect = lower value
Please respond with reported viability, T/C for every item in the list.
Please respond with the number in % and leave the unit unwritten.

Form field - read-out: viability, T/C; system: 349418-098-R-PDC complex spheroid growth; submitted item: COc1cc(Nc2ncc3c(n2)-c2ccc(Cl)cc2C(c2c(F)cccc2OC)=NC3)ccc1C(=O)O + Cc1ccccc1N=Nc1ccc(NC(=O)c2ccnn2C)c(C)c1
38.1

Query viability, T/C on 349418-098-R-PDC complex spheroid growth for COc1ccc([C@@H](O)c2cc(-c3ncnc4cc(N5CCOCC5)ccc34)c(F)cc2Cl)nn1 + Cc1cncc(-c2nc(NCCc3c[nH]c4ccccc34)c3ncn(C(C)C)c3n2)c1
16.7

Request: viability, T/C, test system 349418-098-R-PDC complex spheroid growth, entry COc1cc(C2c3cc4c(cc3C(OC3OC5COC(C)OC5C(O)C3O)C3COC(=O)C23)OCO4)cc(OC)c1O (stereo not drawn) + Cc1cncc(-c2nc(NCCc3c[nH]c4ccccc34)c3ncn(C(C)C)c3n2)c1
19.2

349418-098-R-PDC complex spheroid growth / viability, T/C / O=C(c1cc(Cc2n[nH]c(=O)c3ccccc23)ccc1F)N1CCN(C(=O)C2CC2)CC1 + Cc1ccccc1N=Nc1ccc(NC(=O)c2ccnn2C)c(C)c1 : value?
69.9

Quick check: viability, T/C on 349418-098-R-PDC complex spheroid growth, item COc1cc(Nc2ncc3c(n2)-c2ccc(Cl)cc2C(c2c(F)cccc2OC)=NC3)ccc1C(=O)O + Cc1cncc(-c2nc(NCCc3c[nH]c4ccccc34)c3ncn(C(C)C)c3n2)c1 ?
20

GET /values?readout=viability, T/C&system=349418-098-R-PDC complex spheroid growth&item= O=C(C=Cc1cccc(S(=O)(=O)Nc2ccccc2)c1)NO + Cc1ccccc1N=Nc1ccc(NC(=O)c2ccnn2C)c(C)c1
94.1

# returns recorded viability, T/C (system: 349418-098-R-PDC complex spheroid growth) for O=C(c1cc(Cc2n[nH]c(=O)c3ccccc23)ccc1F)N1CCN(C(=O)C2CC2)CC1 + CC(CO)NC(=O)c1cc(-c2ccc(Cl)cc2)nn(-c2cnn(C)c2)c1=O
87.9

Short answer please: viability, T/C, 349418-098-R-PDC complex spheroid growth, entry NS(=O)(=O)OCC1CC(n2ccc3c(NC4CCc5ccccc54)ncnc32)CC1O (stereo not drawn) + Cc1ccccc1N=Nc1ccc(NC(=O)c2ccnn2C)c(C)c1
58.1

====

Test system: 349418-098-R-PDC complex spheroid growth
experimentalProtocol: Anticancer human tumor 349418-098-R-PDC cell line growth inhibition [AhR];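 also: spheroids also contain HUVEC endothelial cells and human MSC stroma; spheroids exposed to agents for seven days before luminescence viability read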
runParameters: second compound 1 µM; first compound 0.316 µM; stronger effect = lower value
measuredAttribute: viability, T/C

Given the entry COc1cccc2c1C(=O)c1c(O)c3c(c(O)c1C2=O)CC(O)(C(=O)CO)CC3OC1CC(N)C(O)C(C)O1 (stereo not drawn) + CC(CO)NC(=O)c1cc(-c2ccc(Cl)cc2)nn(-c2cnn(C)c2)c1=O , report its measured viability, T/C.
3.05%

Entry CC1COCCN1c1cc(C2(S(C)(=N)=O)CC2)nc(-c2ccnc3[nH]ccc23)n1 (stereo not drawn) + Cc1ccccc1N=Nc1ccc(NC(=O)c2ccnn2C)c(C)c1 has what viability, T/C?
86.8%

I am curious: what viability, T/C value has been reported for Nc1ccn(C2OC(CO)C(O)C2(F)F)c(=O)n1 (stereo not drawn) + CC(CO)NC(=O)c1cc(-c2ccc(Cl)cc2)nn(-c2cnn(C)c2)c1=O ?
13.3%

Entry Nc1ccn(C2OC(CO)C(O)C2(F)F)c(=O)n1 (stereo not drawn) + Cc1ccccc1N=Nc1ccc(NC(=O)c2ccnn2C)c(C)c1 has what viability, T/C?
15.3%

# get_value(readout='viability, T/C', item= Nc1ncn(C2CC(O)C(CO)O2)c(=O)n1 (stereo not drawn) + Cc1ccccc1N=Nc1ccc(NC(=O)c2ccnn2C)c(C)c1 )
44%

// viability, T/C lookup, key: COc1ccc([C@@H](O)c2cc(-c3ncnc4cc(N5CCOCC5)ccc34)c(F)cc2Cl)nn1 + Cc1cncc(-c2nc(NCCc3c[nH]c4ccccc34)c3ncn(C(C)C)c3n2)c1
80.5%

// returns reported viability, T/C for input COc1cc(C2c3cc4c(cc3C(OC3OC5COC(C)OC5C(O)C3O)C3COC(=O)C23)OCO4)cc(OC)c1O (stereo not drawn) + CC(CO)NC(=O)c1cc(-c2ccc(Cl)cc2)nn(-c2cnn(C)c2)c1=O
64.5%

Which viability, T/C is listed for CC(C)c1c(-c2ccccc2)nc2c(C#N)c[nH]n2c1=O + CC(CO)NC(=O)c1cc(-c2ccc(Cl)cc2)nn(-c2cnn(C)c2)c1=O ?
88.3%

Recorded viability, T/C of NS(=O)(=O)OCC1CC(n2ccc3c(NC4CCc5ccccc54)ncnc32)CC1O (stereo not drawn) + CC(CO)NC(=O)c1cc(-c2ccc(Cl)cc2)nn(-c2cnn(C)c2)c1=O , please.
24.5%

What does the data say about its viability, T/C? Entry: O=C(C=Cc1cccc(S(=O)(=O)Nc2ccccc2)c1)NO + Cc1cncc(-c2nc(NCCc3c[nH]c4ccccc34)c3ncn(C(C)C)c3n2)c1
61.1%

Field request: viability, T/C | item: COc1cc(Nc2ncc3c(n2)-c2ccc(Cl)cc2C(c2c(F)cccc2OC)=NC3)ccc1C(=O)O + Cc1ccccc1N=Nc1ccc(NC(=O)c2ccnn2C)c(C)c1
34.4%

Which value of viability, T/C has been reported for O=C(C=Cc1cccc(S(=O)(=O)Nc2ccccc2)c1)NO + CC(CO)NC(=O)c1cc(-c2ccc(Cl)cc2)nn(-c2cnn(C)c2)c1=O in the records?
77%

Could you share which viability, T/C value was measured for COc1cc(C2c3cc4c(cc3C(OC3OC5COC(C)OC5C(O)C3O)C3COC(=O)C23)OCO4)cc(OC)c1O (stereo not drawn) + Cc1cncc(-c2nc(NCCc3c[nH]c4ccccc34)c3ncn(C(C)C)c3n2)c1 ?
59.6%

Name the reported viability, T/C value associated with the compound NS(=O)(=O)OCC1CC(n2ccc3c(NC4CCc5ccccc54)ncnc32)CC1O (stereo not drawn) + Cc1ccccc1N=Nc1ccc(NC(=O)c2ccnn2C)c(C)c1
39%

Name the recorded viability, T/C for NS(=O)(=O)OCC1CC(n2ccc3c(NC4CCc5ccccc54)ncnc32)CC1O (stereo not drawn) + Cc1cncc(-c2nc(NCCc3c[nH]c4ccccc34)c3ncn(C(C)C)c3n2)c1 .
19.2%

For the compound CC1COCCN1c1cc(C2(S(C)(=N)=O)CC2)nc(-c2ccnc3[nH]ccc23)n1 (stereo not drawn) + CC(CO)NC(=O)c1cc(-c2ccc(Cl)cc2)nn(-c2cnn(C)c2)c1=O , what viability, T/C is on record?
85.2%

For Nc1ccn(C2OC(CO)C(O)C2(F)F)c(=O)n1 (stereo not drawn) + Cc1cncc(-c2nc(NCCc3c[nH]c4ccccc34)c3ncn(C(C)C)c3n2)c1 , what is its reported viability, T/C?
5.73%

For the compound CC1COCCN1c1cc(-c2ccnn2C)c2ccnc(-c3ccn[nH]3)c2n1 (stereo not drawn) + Cc1cncc(-c2nc(NCCc3c[nH]c4ccccc34)c3ncn(C(C)C)c3n2)c1 , what viability, T/C is on record?
13.2%
